Each record here notes measured DC50.
- subject_of_test: UniProt P41182
- assay_text: Immunofluorescence high content imaging of BCL6 degradation in T47D cells
- Assay type: cell-based
- conditions_used: class symbols A-D, read-out: EC50 (nM)*

[[record]]
compound = "CNC(=O)COc1cc2cc(Nc3nc(N4CCC(OCCN5CCN(Cc6ccc(C#Cc7ccc8c(c7)CN(C7CCC(=O)NC7=O)C8=O)cc6)CC5)CC4)ncc3Cl)ccc2n(C)c1=O (stereo not drawn)"
subject_of_test = "UniProt P41182"
recorded_value = "10 to 50 nM"


Problem: I am curious: what DC50 value has been reported for CNC(=O)COc1cc2cc(Nc3nc(N4CCN(CCCN5CCN(c6ccc7c(c6)CN(C6CCC(=O)NC6=O)C7=O)CC5)CC4)ncc3Cl)ccc2n(C)c1=O (stereo not drawn) ?
Result: 10 to 50 nM

Problem: CNC(=O)COc1cc2cc(Nc3nc(N4CCC(OCCOCCOCCOCCOCCOc5cc(-c6scnc6C)ccc5CNC(=O)[C@@H]5C[C@@H](O)CN5C(=O)C(c5cc(C)no5)C(C)C)CC4)ncc3Cl)ccc2n(C)c1=O (stereo partly drawn) ?
Result: > 100 nM

====

- subject_of_test: BCL6 (Homo sapiens (Human), UniProt P41182)
- assay_text: Immunofluorescence high content imaging of BCL6 degradation in T47D cells
- Assay type: cell-based
- conditions_used: T47D cells
measured_property: Dmax

Past entries and their recorded results:
[[record]]
compound = "CNC(=O)COc1cc2cc(Nc3nc(N4CCC5(CC4)CN(CC4CCN(c6ccc7c(c6)CN(C6CCC(=O)NC6=O)C7=O)CC4)C5)ncc3Cl)ccc2n(C(C)C)c1=O (stereo not drawn) [compound 413]"
measured_property = "Dmax"
recorded_value = "50 to 70%"

[[record]]
compound = "CNC(=O)COc1cc2cc(Nc3nc(N4CCC(CN5CC6(CCN(c7cccc(C(=O)NC8CCC(=O)NC8=O)c7F)CC6)C5)CC4)ncc3Cl)ccc2n(C(C)C)c1=O (stereo not drawn) [compound 440]"
measured_property = "Dmax"
recorded_value = "≥ 70%"


Pending compound:
Problem: I am curious: what Dmax value has been reported for CNC(=O)COc1cc2cc(Nc3nc(N4CCC(OC5CC6(C5)CN(c5ccc7c(c5)CN(C5CCC(=O)NC5=O)C7=O)C6)CC4)ncc3Cl)ccc2n(C(C)C)c1=O (stereo not drawn) [compound 412] ?
Result: ≥ 70%

====

- subject_of_test: BCL6 (Homo sapiens (Human), UniProt P41182)
- assay_text: Immunofluorescence high content imaging of BCL6 degradation in T47D cells
- Format: cell-based
measured_property: IC50

Past entries and their recorded results:
[[record]]
compound = "CNC(=O)COc1cc2cc(Nc3nc(N4CCC(CN5CCC(c6coc(C(=O)NC7CCC(=O)NC7=O)c6)CC5)CC4)ncc3Cl)ccc2n(C)c1=O (centres unmarked) [compound 286]"
measured_property = "IC50"
recorded_value = "50 to 100 nM"

[[record]]
compound = "CC(=O)c1cc2cc(Nc3nc(N4CCC(CN5CCN(c6ccc7c(c6)C(=O)N(C6CCC(=O)NC6=O)C7=O)CC5)CC4)ncc3Cl)ccc2n(C)c1=O (centres unmarked) [compound 206]"
measured_property = "IC50"
recorded_value = "50 to 100 nM"

[[record]]
compound = "CCn1c(=O)c(OCC(=O)NC)cc2cc(Nc3nc(N4CCC(OC5CN(CC6CN(c7ccc8c(c7)C(=O)N(C7CCC(=O)NC7=O)C8=O)C6)C5)CC4)ncc3Cl)ccc21 (centres unmarked) [compound 309]"
measured_property = "IC50"
recorded_value = "10 to 50 nM"

[[record]]
compound = "CNC(=O)COc1cc2cc(Nc3nc(N4CCCC(OC5CCN(c6ccc7c(c6)C(=O)N(C6CCC(=O)NC6=O)C7=O)CC5)CC4)ncc3Cl)ccc2n(C)c1=O (centres unmarked) [compound 241]"
measured_property = "IC50"
recorded_value = "10 to 50 nM"

[[record]]
compound = "CNC(=O)COc1cc2cc(Nc3nc(N4CCN(C)CC4)ncc3Cl)ccc2n(CCCCOc2ccc3c(c2)C(=O)N(C2CCC(=O)NC2=O)C3=O)c1=O (centres unmarked) [compound 238]"
measured_property = "IC50"
recorded_value = "≥ 100 nM"


Pending compound:
Problem: Under BCL6 (Homo sapiens (Human), UniProt P41182): IC50 value of CNC(=O)COc1cc2cc(Nc3nc(N4CCC(CN5CCN(c6ccc7c(c6)C(=O)N(C6CCC(=O)NC6=O)C7=O)CC5=O)CC4)ncc3Cl)ccc2n(C)c1=O (centres unmarked) [compound 196] ?
Result: 10 to 50 nM

Every entry's value here was drawn from patent US12310975B2.
